Molecular target: Melanocortin receptor 5 (Mus musculus, UniProt P41149)
Sequence (P41149 whole entry): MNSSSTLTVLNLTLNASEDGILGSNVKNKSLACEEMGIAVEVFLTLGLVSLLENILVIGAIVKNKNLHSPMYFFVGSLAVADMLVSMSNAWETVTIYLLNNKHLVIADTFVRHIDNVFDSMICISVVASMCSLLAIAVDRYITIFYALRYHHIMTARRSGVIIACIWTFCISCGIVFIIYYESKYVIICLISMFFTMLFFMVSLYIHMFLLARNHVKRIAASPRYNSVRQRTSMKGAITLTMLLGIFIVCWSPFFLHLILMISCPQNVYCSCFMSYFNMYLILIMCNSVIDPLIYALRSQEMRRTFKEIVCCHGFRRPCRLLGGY
Experiment: Agonistic activity evaluated at melanocortin 5 receptor (MC5R) of mouse HEK293 cells
Where a SMILES comes first, the peptide text is derived from it. [ ]: non-standard residue; d: D form. Gly(N(CH2)2(3-indolyl)) = O=C(O)CNCCc1c[nH]c2ccccc12; Gly(N-CH2CH2-imidazol-4-yl) = O=C(O)CNCCc1c[nH]cn1; N(1-naphthylmethyl)Gly = O=C(O)CNCc1cccc2ccccc12; Gly(N-(CH2)3-guanidino) = N=C(N)NCCCNCC(=O)O; NhArg = N=C(N)NCCCCNCC(=O)O; Nphe = O=C(O)CNCc1ccccc1; Nlys = NCCCCNCC(=O)O
measurementType: pEC50
Scale: negative log10 of molar concentration, which is what pEC50 denotes.

// worked examples, pEC50 included
| compound | tgt | pEC50 |
| --- | --- | --- |
| CC(=O)N(CCc1c[nH]cn1)CC(=O)N(CC(=O)N(CCCN=C(N)N)CC(=O)N(CCc1c[nH]c2ccccc12)CC(N)=O)Cc1ccccc1 (Ac-[Gly(N-CH2CH2-imidazol-4-yl)][Nphe][Gly(N-(CH2)3-guanidino)][Gly(N(CH2)2(3-indolyl))]-NH2) | Melanocortin receptor 5 (Mus musculus, UniProt P41149) | 5.28 |
| CC(=O)N(CC(=O)N(CC(=O)N(CCCCN=C(N)N)CC(=O)N(CC(N)=O)Cc1cccc2ccccc12)Cc1ccccc1)Cc1ccccc1 (Ac-[Nphe][Nphe][NhArg][N(1-naphthylmethyl)Gly]-NH2) | Melanocortin receptor 5 (Mus musculus, UniProt P41149) | 4.70 |
| CC(=O)N(CCc1c[nH]cn1)CC(=O)N(CC(=O)N(CCCCN)CC(=O)N(CCc1c[nH]c2ccccc12)CC(N)=O)Cc1ccccc1 (Ac-[Gly(N-CH2CH2-imidazol-4-yl)][Nphe][Nlys][Gly(N(CH2)2(3-indolyl))]-NH2) | Melanocortin receptor 5 (Mus musculus, UniProt P41149) | 5.13 |

Now consider the entry below.
Value of pEC50 reported for the compound CC(=O)N[C@@H](Cc1cnc[nH]1)C(=O)N[C@@H](Cc1ccccc1)C(=O)N(CCCNC(=N)N)CC(=O)N[C@@H](Cc1c[nH]c2ccccc12)C(N)=O (Ac-HF[Gly(N-(CH2)3-guanidino)]W-NH2) is 6.80

----------
The entries below come with measured pEC50 values attached.
Molecular target: Melanocortin receptor 4 (Mus musculus, UniProt P56450)
Sequence (P56450 whole entry): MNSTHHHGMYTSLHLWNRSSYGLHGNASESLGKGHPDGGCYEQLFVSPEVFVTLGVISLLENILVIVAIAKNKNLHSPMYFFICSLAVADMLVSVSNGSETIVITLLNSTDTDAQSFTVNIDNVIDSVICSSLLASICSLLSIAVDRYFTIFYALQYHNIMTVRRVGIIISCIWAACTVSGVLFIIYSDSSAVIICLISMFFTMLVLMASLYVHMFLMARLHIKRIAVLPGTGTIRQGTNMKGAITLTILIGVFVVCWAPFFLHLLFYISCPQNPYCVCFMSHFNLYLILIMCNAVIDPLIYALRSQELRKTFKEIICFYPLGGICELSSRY
Assay: Agonistic activity evaluated at melanocortin 4 receptor (MC4R) of mouse HEK293 cells
Where a SMILES comes first, the peptide text is derived from it. [ ]: non-standard residue; d: D form. Gly(N(CH2)2(3-indolyl)) = O=C(O)CNCCc1c[nH]c2ccccc12; Gly(N-CH2CH2-imidazol-4-yl) = O=C(O)CNCCc1c[nH]cn1; Gly(N-(CH2)3-guanidino) = N=C(N)NCCCNCC(=O)O; Nphe = O=C(O)CNCc1ccccc1; Nlys = NCCCCNCC(=O)O
Scale: negative log10 of molar concentration, which is what pEC50 denotes.

// worked examples, pEC50 included
| molecule | pEC50 |
| --- | --- |
| CC(=O)N(CC(=O)N[C@@H](Cc1ccccc1)C(=O)N[C@@H](CCCN=C(N)N)C(=O)N[C@@H](Cc1c[nH]c2ccccc12)C(N)=O)Cc1ccccc1 (Ac-[Nphe]FRW-NH2) | 6.59 |
| CC(=O)N(CCc1cnc[nH]1)CC(=O)N[C@@H](Cc1ccccc1)C(=O)N[C@@H](CCCNC(=N)N)C(=O)N[C@@H](Cc1c[nH]c2ccccc12)C(N)=O (Ac-[Gly(N-CH2CH2-imidazol-4-yl)]FRW-NH2) | 6.06 |
| CC(=O)N[C@@H](Cc1c[nH]cn1)C(=O)N[C@@H](Cc1ccccc1)C(=O)N[C@@H](CCCN=C(N)N)C(=O)N(CCc1c[nH]c2ccccc12)CC(N)=O (Ac-HFR[Gly(N(CH2)2(3-indolyl))]-NH2) | 6.19 |

Value of pEC50 reported for the molecule CC(=O)N(CCc1c[nH]cn1)CC(=O)N(CC(=O)N(CCCCN)CC(=O)N(CCc1c[nH]c2ccccc12)CC(N)=O)Cc1ccccc1 (Ac-[Gly(N-CH2CH2-imidazol-4-yl)][Nphe][Nlys][Gly(N(CH2)2(3-indolyl))]-NH2) is 4.57

Value of pEC50 reported for the molecule CC(=O)N[C@@H](Cc1cnc[nH]1)C(=O)N[C@@H](Cc1ccccc1)C(=O)N(CCCNC(=N)N)CC(=O)N[C@@H](Cc1c[nH]c2ccccc12)C(N)=O (Ac-HF[Gly(N-(CH2)3-guanidino)]W-NH2) is 5.96

----------
Molecular target: Melanocortin receptor 3 (Mus musculus, UniProt P33033)
Sequence (P33033 whole entry): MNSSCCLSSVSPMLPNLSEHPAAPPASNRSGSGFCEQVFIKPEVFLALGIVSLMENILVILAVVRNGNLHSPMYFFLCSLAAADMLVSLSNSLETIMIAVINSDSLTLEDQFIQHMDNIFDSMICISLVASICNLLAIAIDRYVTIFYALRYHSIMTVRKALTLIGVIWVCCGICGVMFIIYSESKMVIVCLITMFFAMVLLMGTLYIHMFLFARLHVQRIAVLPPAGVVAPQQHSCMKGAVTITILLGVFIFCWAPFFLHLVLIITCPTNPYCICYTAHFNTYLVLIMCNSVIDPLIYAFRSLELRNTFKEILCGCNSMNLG
Experiment: Agonistic activity evaluated at melanocortin 3 receptor (MC3R) of mouse HEK293 cells
Where a SMILES comes first, the peptide text is derived from it. [ ]: non-standard residue; d: D form. Gly(N-(CH2)3-guanidino) = N=C(N)NCCCNCC(=O)O
measurementType: pEC50
Scale: negative log10 of molar concentration, which is what pEC50 denotes.

Value of pEC50 reported for the compound CC(=O)N[C@@H](Cc1cnc[nH]1)C(=O)N[C@@H](Cc1ccccc1)C(=O)N(CCCNC(=N)N)CC(=O)N[C@@H](Cc1c[nH]c2ccccc12)C(N)=O (Ac-HF[Gly(N-(CH2)3-guanidino)]W-NH2) is 5.04

Source listed as ChEMBL document CHEMBL1145871.
